Target: T1, ZFP SBS#1431 (synthetic)
T1 chain: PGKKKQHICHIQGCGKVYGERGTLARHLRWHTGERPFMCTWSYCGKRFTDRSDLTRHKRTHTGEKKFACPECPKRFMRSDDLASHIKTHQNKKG
Test: EMSA
Conditions: tags: MBP fusion
REPORTED ENDPOINT: Kd (nM)

TCGGCCGCC (dsDNA) DNA 1: TCGGCCGCC DNA 2: GGCGGCCGA ... 6.17
